Where these numbers come from: ChEMBL document CHEMBL1157714

Tested on: MT4
Experiment: Cytotoxicity against human MT4 cells after 5 days
Assay type: cell-based
Details: mt4, 120 h
endpoint: CC100

Worked examples follow.
CCCCC1(CCCC)OC(=O)[C@]2(C[C@@H](O)[C@H](O)[C@H](OC(=O)/C=C/c3ccc(O)c(O)c3)C2)O1: > 25 µg/mL
CC1(C)OC(=O)[C@@]2(C=C[C@@H](O)[C@H](OC(=O)/C=C/c3ccc(O)c(O)c3)C2)O1: > 100 µg/mL
CC[C@@H]1OC(=O)[C@]2(C[C@@H](O)[C@H](O)[C@H](OC(=O)/C=C/c3ccc(O)c(O)c3)C2)O1: > 12.5 µg/mL
O=C(/C=C/c1ccc(O)c(O)c1)O[C@@H]1C=C[C@@](O)(C(=O)O)C[C@H]1OC(=O)/C=C/c1ccc(O)c(O)c1: > 25 µg/mL
O=C(/C=C/c1ccc(O)c(O)c1)O[C@@H]1C[C@](O)(C(=O)O)C[C@@H](OC(=O)/C=C/c2ccc(O)c(O)c2)[C@H]1O: > 50 µg/mL

Q: Quick one: CC100 of CC1(C)O[C@H]2C=C[C@@]3(C[C@H]2O1)OC(C)(C)OC3=O ?
Result: > 100 µg/mL

Q: Same thing, different compound: O=C(/C=C/c1ccc(O)c(O)c1)O[C@@H]1C=C[C@@](O)(C(=O)O)C[C@H]1O
Result: > 25 µg/mL

Q: Same thing, different compound: CC[C@H]1OC(=O)[C@]2(C[C@@H](O)[C@H](O)[C@H](OC(=O)/C=C/c3ccc(O)c(O)c3)C2)O1
Result: > 12.5 µg/mL

Q: Same thing, different compound: CC(=O)Oc1ccc(/C=C/C(=O)O[C@@H]2C=C[C@@]3(C[C@H]2OC(=O)/C=C/c2ccc(OC(C)=O)c(OC(C)=O)c2)OC(C)(C)OC3=O)cc1OC(C)=O
Result: > 6.25 µg/mL

Q: Same thing, different compound: CCC1(CC)OC(=O)[C@]2(C[C@@H](O)[C@H](O)[C@H](OC(=O)/C=C/c3ccc(O)c(O)c3)C2)O1
Result: > 25 µg/mL

Q: Same thing, different compound: CC(=O)Oc1ccc(/C=C/C(=O)O[C@@H]2C[C@]3(C=C[C@H]2O)OC(C)(C)OC3=O)cc1OC(C)=O
Result: > 100 µg/mL

Q: Same thing, different compound: CC1(C)OC(=O)[C@@]2(C=C[C@@H](OC(=O)/C=C/c3ccc(O)c(O)c3)[C@H](O)C2)O1
Result: > 100 µg/mL

* * *

Test system: MT4
Test: Cytotoxicity against human MT4 cells after 5 days
Type: cell-based
Conditions: mt4, 120 h
endpoint: CC100

Worked examples follow.
CC1(C)OC(=O)[C@@]2(C=C[C@@H](O)[C@H](O)C2)O1: > 100 µg/mL
CC1(C)O[C@H]2[C@H](O)C[C@@]3(C[C@H]2O1)OC(C)(C)OC3=O [QUINIC ACID BISACETONIDE]: > 100 µg/mL
CC1(C)OC(=O)[C@@]2(C=C[C@@H](OC(=O)/C=C/c3ccc(O)c(O)c3)[C@H](OC(=O)/C=C/c3ccc(O)c(O)c3)C2)O1: > 25 µg/mL
COC(=O)[C@@]1(O)C[C@@H](O)[C@H](O)[C@H](OC(=O)/C=C/c2ccc(O)c(O)c2)C1: > 25 µg/mL

Q: Quick one: CC100 of O=C(/C=C/c1ccc(O)c(O)c1)O[C@@H]1C[C@](O)(C(=O)O)C=C[C@H]1O ?
Result: > 25 µg/mL

Q: Same thing, different compound: CCCCCC1(CCCCC)OC(=O)[C@]2(C[C@@H](O)[C@H](O)[C@H](OC(=O)/C=C/c3ccc(O)c(O)c3)C2)O1
Result: > 12.5 µg/mL

Q: Same thing, different compound: CCCC1(CCC)OC(=O)[C@]2(C[C@@H](O)[C@H](O)[C@H](OC(=O)/C=C/c3ccc(O)c(O)c3)C2)O1
Result: > 25 µg/mL

Q: Same thing, different compound: CC1(C)OC(=O)[C@]2(C[C@@H](O)[C@H](O)[C@H](OC(=O)/C=C/c3ccc(O)c(O)c3)C2)O1
Result: > 50 µg/mL
